Each recorded value in this set is attributed to paper PMC6002953.

// values below are reported Kd
Subject of test: UniProtKB O43614
Sequence (O43614 1-444): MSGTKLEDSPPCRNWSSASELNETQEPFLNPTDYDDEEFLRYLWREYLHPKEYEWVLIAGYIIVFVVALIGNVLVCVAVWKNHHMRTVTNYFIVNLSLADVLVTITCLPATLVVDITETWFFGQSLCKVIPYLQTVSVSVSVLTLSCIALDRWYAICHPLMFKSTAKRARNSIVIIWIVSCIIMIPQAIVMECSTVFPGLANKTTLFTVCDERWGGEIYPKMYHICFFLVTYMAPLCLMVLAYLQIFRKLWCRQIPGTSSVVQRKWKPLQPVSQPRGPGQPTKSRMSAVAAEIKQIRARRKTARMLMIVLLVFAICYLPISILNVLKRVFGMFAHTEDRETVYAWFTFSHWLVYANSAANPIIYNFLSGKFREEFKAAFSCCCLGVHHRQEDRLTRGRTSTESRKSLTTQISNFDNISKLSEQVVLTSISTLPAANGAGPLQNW
Test details: Calcium mobilization Ke assay, OX2
Parameter: Kd (µM)

COc1cc2c(cc1OCC(F)(F)F)C(Cc1ccc3ccccc3c1)N(CC(=O)NCc1cccnc1)CC2 (stereo not drawn) [Compound 15a] = 1.75
CCCCOc1ccc(CC2c3cc(OS(C)(=O)=O)c(OC)cc3CCN2CC(=O)NCc2ccccc2)cc1OC (stereo not drawn) [Compound 25b] = 1.2
